# Target Under Test: DYNLL1 1-89 Dynein_light (domain begin residue: 1, domain end residue: 89), P63167
# Sequence (P63167 whole entry): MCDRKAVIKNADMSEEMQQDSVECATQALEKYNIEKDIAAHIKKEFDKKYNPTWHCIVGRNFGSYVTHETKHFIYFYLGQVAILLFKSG
# Assay Overview: phage ELISA signal ratio (GST-PRM binding over GST background); higher = stronger binding of peptide-phage to the PRM
The threshold is inclusive: phage ELISA signal ratio of exactly 20 counts as Fulfilled; values below receive Not fulfilled.

Study these solved cases before continuing.
| Binder | Assigned Class |
| --- | --- |
| TQTPYDWLYPAATYLT | Fulfilled |
| TQTEDWPQRESQPNWM | Fulfilled |
| TQTSWWWSETPMFPFM | Not fulfilled |
| VQTDWYGVDGFWVPVL | Not fulfilled |
| SQTDPTYWFPWEDKWN | Fulfilled |

Hi team, for VQTDWMDWWMPDPFNA , is the recorded phage ELISA signal ratio at or above 20? Fulfilled
